Test Summary: self-splicing fitness, log relative to wild type (ln ratio); higher = more splicing; Tetrahymena group I intron in knt gene, E. coli kanamycin selection, DiMSum; sequences stand for … in CUCUCU…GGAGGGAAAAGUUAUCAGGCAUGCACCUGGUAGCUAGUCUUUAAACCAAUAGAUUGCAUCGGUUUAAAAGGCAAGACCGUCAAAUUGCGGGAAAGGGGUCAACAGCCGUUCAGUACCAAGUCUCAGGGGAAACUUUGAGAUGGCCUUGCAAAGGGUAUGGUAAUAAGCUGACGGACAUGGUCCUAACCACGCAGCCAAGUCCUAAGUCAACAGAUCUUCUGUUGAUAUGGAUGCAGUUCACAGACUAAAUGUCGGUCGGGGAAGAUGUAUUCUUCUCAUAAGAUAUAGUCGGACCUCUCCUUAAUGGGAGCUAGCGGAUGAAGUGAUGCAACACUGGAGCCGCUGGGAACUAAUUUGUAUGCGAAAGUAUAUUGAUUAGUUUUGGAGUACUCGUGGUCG;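 also: selection with 25 µg/mL kanamycin versus none on LB agar overnight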
Test Parameters: 30 °C
Rule: self-splicing fitness (ln) under -2 gives rule not met, otherwise rule met.

AAGCAGCAAUAUUACGCCUG ... rule not met
CACGAGCAAUAUUACGUCGC ... rule not met
CGACAGCAAUAUUACGUUGC ... rule not met

In: // inclusive: self-splicing fitness (ln) at least -2? input: `UAGCAGCAAUAUUACGAAGU`
Out: rule met

In: // next record `AGCGAGCAAUAUUACGUUAU`
Out: rule not met

In: // next record `GUCCAGCAAUAUUACGGGAC`
Out: rule not met

In: // next record `CUCCAGCAAUAUUACGCAGC`
Out: rule not met

In: // next record `AAGCAGCAAUAUUACGUGCU`
Out: rule not met

In: // next record `CGUUAGCAAUAUUACGCUCG`
Out: rule met
